Assay: Cytotoxicity against human HepG2 cells assessed as growth inhibition by XTT assay
Assay type: toxicity, cell-based
PARAMETER: IC50 (µM)
Number in µM, nothing else.

// Input: Clc1cc2c(c3ncccc13)OCN(CCc1ccccc1)C2 . Output its IC50 only. 22.7

For the compound NC1CCCc2ccc(C3=NSC(c4cc(Cl)c(F)c(Cl)c4)(C(F)(F)F)C3)cc21 (configuration not stated) , give its measured IC50 value. 13.2

State its IC50: CCCCCn1nc(-c2ccc(Cl)cc2)cnc1=O 2.07

Please list IC50 recorded for the compound C1CCC(C(CC2CCCCN2)C2CCCCC2)CC1 (configuration not stated) 11.3

# credit: ChEMBL document CHEMBL5223186
